Molecular target: T1, human EphA2 protein (human, UniProt P29317 25-534, limits assumed, biotinylated with EZ-Link Sulfo-NHS-LC-Biotin)
T1 construct: Construct not described
T1 sequence (P29317 25-534 limits assumed): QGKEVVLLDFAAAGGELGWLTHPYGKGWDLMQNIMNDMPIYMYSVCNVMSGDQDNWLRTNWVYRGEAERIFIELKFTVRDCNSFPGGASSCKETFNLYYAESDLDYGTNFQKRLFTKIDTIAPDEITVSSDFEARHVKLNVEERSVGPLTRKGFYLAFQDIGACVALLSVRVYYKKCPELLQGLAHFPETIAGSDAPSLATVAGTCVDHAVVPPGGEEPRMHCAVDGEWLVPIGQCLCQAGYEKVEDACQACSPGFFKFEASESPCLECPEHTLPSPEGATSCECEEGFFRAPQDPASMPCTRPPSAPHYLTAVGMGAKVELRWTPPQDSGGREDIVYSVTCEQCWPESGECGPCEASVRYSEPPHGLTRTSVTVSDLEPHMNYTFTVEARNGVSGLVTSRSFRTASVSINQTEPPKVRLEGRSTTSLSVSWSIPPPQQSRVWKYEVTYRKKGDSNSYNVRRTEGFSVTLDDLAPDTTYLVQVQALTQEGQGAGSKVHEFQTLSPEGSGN
Assay: SPR (Biacore T200), biotinylated human EphA2 on streptavidin chip
Starred links: 1 amine or outer side, 2 acyl side, 3 side chain; linkers in the order of their positions; H or OH if unused. Positions of bridges follow the written chain, without caps; N, C: chain ends. Non-standard residues stand in square brackets, D forms with d. Chains are numbered I, II in the order given. No end group written: not given here. *: point of attachment. TATA = O=C(CC[*:1])N1CN(C(=O)CC[*:2])CN(C(=O)CC[*:3])C1; Hyp = O=C(O)[C@@H]1C[C@@H](O)CN1; hArg = N=C(N)NCCCC[C@H](N)C(=O)O; tBuAla = CC(C)(C)C[C@H](N)C(=O)O; Nle = CCCC[C@H](N)C(=O)O; Pent4ynoyl = C#CCCC(=O)*; Dap = NC[C@H](N)C(=O)O; βAla = NCCC(=O)O; Sar = CNCC(=O)O
// pKd lookup, one value per entry
Convention used: pKd is expressed as -log10 of the molar concentration.

Below, 3 binders whose answers are already recorded.
heterotandem bicyclic peptide complex BCY9758 (BCY7732: N-terminal acetyl; Nle12; C-terminal Dap (diaminopropionic acid) bearing the linker; Ci, Cii, Ciii on TATA scaffold; BCY6099: N-terminal [B-Ala]-[Sar10]- (linker on N-terminus); HArg in the A-[HArg]-D extension; HyP1, dD10, HArg12; Ci, Cii, Ciii on TATA scaffold) peptide 1: AXDCXLVNPLCLHPDWXC peptide 2: ACIEEGQYCFADPYXC : 8.82
heterotandem bicyclic peptide complex BCY7985 (BCY7732: N-terminal acetyl; Nle12; C-terminal Dap (diaminopropionic acid) bearing the linker; Ci, Cii, Ciii on TATA scaffold; BCY6169: N-terminal [PYA]-[B-Ala]-[Sar10]- (linker on PYA); HArg in the A-[HArg]-D extension; HyP1, dD10, HArg12; Ci, Cii, Ciii on TATA scaffold, also called EphA2-CD137 heterotandem BCY7985) peptide 1: AXDCXLVNPLCLHPDWXC peptide 2: ACIEEGQYCFADPYXC : 8.70
heterotandem bicyclic peptide complex BCY9173 (linker I:14-I:21-I:28, II:1-II:8-II:15 via TATA; numbers in words are those of the source; also: heterotandem: PYA of chain 1 linked via PEG12 to C-terminal Dap of chain 2) peptide 1: {Pent4ynoyl-βAla}-[Sar][Sar][Sar][Sar][Sar][Sar][Sar][Sar][Sar][Sar]A[hArg]DC[Hyp]LVNPLCLHP[dD]W[hArg]C peptide 2: Ac-C[tBuAla]PE[dA]PYCFADPY[Nle]C[Dap] : 8.68

Now consider a different binder.
For the binder heterotandem bicyclic peptide complex BCY8942 (BCY8045: N-terminal acetyl; D-Ala8, Nle12; C-terminal Dap (diaminopropionic acid) bearing the linker; Ci, Cii, Ciii on TATA scaffold; BCY6169: N-terminal [PYA]-[B-Ala]-[Sar10]- (linker on PYA); HArg in the A-[HArg]-D extension; HyP1, dD10, HArg12; Ci, Cii, Ciii on TATA scaffold) peptide 1: AXDCXLVNPLCLHPDWXC peptide 2: ACIEEGQYCFADPYXC , give its measured pKd value.
8.77
